procedure_summary: Selectivity ratio of MHC10 for BALB/C mouse erythrocytes to MIC for fungi
Format: toxicity
Where a SMILES comes first, the peptide text is derived from it.
Would you kindly list selectivity ratio for each of these molecules?
Give only the figure.

The recorded selectivity ratio for entry CC[C@H](C)[C@H](NC(=O)CN)C(=O)N[C@@H](CCCNC(=N)N)C(=O)N[C@@H](Cc1c[nH]c2ccccc12)C(=O)N[C@@H](CCCCN)C(=O)N[C@@H](Cc1ccccc1)C(=O)N[C@@H](Cc1c[nH]c2ccccc12)C(=O)N[C@@H](CCCCN)C(=O)N[C@@H](Cc1ccccc1)C(=O)N[C@H](C(N)=O)[C@@H](C)O (H-GIRWKFWKFT-NH2) equals 8.72

The recorded selectivity ratio for entry CC(C)C[C@H](NC(=O)[C@H](C)NC(=O)[C@@H](NC(=O)[C@H](CCCCN)NC(=O)[C@H](C)NC(=O)[C@H](CCCNC(=N)N)NC(=O)[C@H](CCCCN)NC(=O)[C@H](C)NC(=O)[C@H](C)NC(=O)CN)[C@@H](C)O)C(N)=O (H-GAAKRAKTAL-NH2) equals 1

The recorded selectivity ratio for entry CC(C)C[C@H](NC(=O)CN)C(=O)N[C@@H](CC(C)C)C(=O)N[C@@H](CCCCN)C(=O)N[C@@H](CCCNC(=N)N)C(=O)N[C@@H](CC(C)C)C(=O)N[C@@H](CCCCN)C(=O)N[C@H](C(=O)N[C@@H](CC(C)C)C(=O)N[C@@H](C)C(N)=O)[C@@H](C)O (H-GLLKRLKTLA-NH2) equals 3.08
